# Tested on: CCRIS mutagenicity, Ames/micronucleus/aberration tests
# Protocol details: CCRIS mutagenicity studies
# Test settings: Test System: E. COLI; Strain/Indicator: WP2 (PKM101); Metabolic Activation: NONE; Method: STANDARD PLATE
Calls of active or inactive are those of the source. The rule behind the calls is not given here.
Hi there, use one of these labels in your reply, thanks! active, inactive

Worked set:
• CCn1cc(C(=O)O)c(=O)c2cc3c(cc21)OCO3 = active
• O=c1[nH]cc(F)c(=O)[nH]1 = inactive
• CNCC(O)c1ccc(O)c(O)c1 (configuration not stated) = inactive
• C[n+]1ccc(-c2cc[n+](C)cc2)cc1 = inactive
• NN = active
• CC(C)(C)OO = active

Okay, next one:
Task: Can you look up the reported call for COP(=O)(OC)OC for me?
Result: active

* * *

# Tested on: CCRIS mutagenicity, Ames/micronucleus/aberration tests
# Protocol details: CCRIS mutagenicity studies
# Test settings: Test System: AMES SALMONELLA TYPHIMURIUM; Strain/Indicator: TA1537; Metabolic Activation: RAT, LIVER, S-9, PHENOBARBITAL; Method: STANDARD PLATE
Calls of active or inactive are those of the source. How the calls were made is not given here.
Hi there, use one of these labels in your reply, thanks! label 1 = active, label 0 = inactive

Worked set:
• c1cncc(-c2cccnc2)c1 = label 0
• Nc1ccc2c([nH]c3ccccc32)c1[N+](=O)[O-] = label 1
• c1cc(-c2ccncc2)ccn1 = label 1

Task: Can you look up the reported call for CN(N=O)c1ccccc1 for me?
Result: label 0

* * *

# Test system: CCRIS mutagenicity, Ames/micronucleus/aberration tests
# Protocol details: CCRIS mutagenicity studies
# Test settings: Test System: CHINESE HAMSTER V-79; Strain/Indicator: V-79/6-THIOGUANINE; Metabolic Activation: NONE; Method: STANDARD PLATE
The source made the active and inactive calls. No rule for the calls is given here.
Hi there, use one of these labels in your reply, thanks! active, inactive

Worked set:
• CN(C)CCCNc1c2ccccc2nc2ccccc12 = inactive
• C=CCN1C2c3ccccc3-c3ccccc3C21 (stereo not drawn) = active
• c1ccc2c(c1)-c1ccccc1C1NC21 (stereo not drawn) = active
• c1ccc2c(c1)-c1ccc3ccccc3c1C1OC21 (stereo not drawn) = active
• CC1(C)C(C=C(Cl)Cl)C1C(=O)OC(C#N)c1cccc(Oc2ccccc2)c1 (stereo not drawn) = inactive
• CC(C)[N+](=O)[O-] = active

Okay, next one:
Task: Can you look up the reported call for CS(=O)(=O)N1C2c3ccccc3-c3ccccc3C21 (stereo not drawn) for me?
Result: inactive

* * *

# System: CCRIS mutagenicity, Ames/micronucleus/aberration tests
# Protocol details: CCRIS mutagenicity studies
# Test settings: Test System: AMES SALMONELLA TYPHIMURIUM; Strain/Indicator: TA98; Metabolic Activation: NONE; Method: STANDARD PLATE
# Excerpt: The CCRIS database contains chemical records with carcinogenicity, mutagenicity, tumor promotion, and tumor inhibition test results. It was developed by the National Cancer Institute (NCI). Data are derived from studies cited in primary journals, current awareness tools, NCI reports, and other sources. Test results have been reviewed by experts in carcinogenesis and mutagenesis. CCRIS provides historical information from the years 1985 - 2011. It is no longer updated. […]
Activity calls are given as the source filed them. The rule behind the calls is not given here.
Hi there, use one of these labels in your reply, thanks! active, inactive

Worked set:
* ClCC1CO1 (stereo not drawn) | inactive
* C[C@]1(Cn2ccnn2)[C@H](C(=O)O)N2C(=O)C[C@H]2S1(=O)=O | inactive
* Cn1c2ccccc2c2cc(N)ccc21 | active

Task: Can you look up the reported call for NCCN1CCNCC1 for me?
Result: inactive

Task: Can you look up the reported call for COc1cc([N+](=O)[O-])ccc1NC(C)=O for me?
Result: active

Task: Can you look up the reported call for CCCCC(CC)COC(=O)c1ccc(C(=O)OCC(CC)CCCC)cc1 (stereo not drawn) for me?
Result: inactive

Task: Can you look up the reported call for CC1CNC(=O)N1c1ncc([N+](=O)[O-])s1 (stereo not drawn) for me?
Result: active

Task: Can you look up the reported call for O=C1C=Cc2ccc3c4c(ccc1c24)C(=O)C=C3 for me?
Result: inactive

Task: Can you look up the reported call for CCCCON=O for me?
Result: inactive

Task: Can you look up the reported call for O=[N+]([O-])c1ccc2ccc3cc4c(c5ccc1c2c35)CCC=C4 for me?
Result: active

Task: Can you look up the reported call for CN1CCN(c2ccc3nc(Cc4ccc5nc(-c6ccc(N(CCCl)CCCl)cc6)[nH]c5c4)[nH]c3c2)CC1 for me?
Result: inactive

Task: Can you look up the reported call for O=c1[nH]c(=O)n([C@H]2C[C@H](O)[C@@H](CO)O2)cc1CCCl for me?
Result: inactive

Task: Can you look up the reported call for Nc1ccc(F)cc1 for me?
Result: inactive

* * *

# Test system: CCRIS mutagenicity, Ames/micronucleus/aberration tests
# Protocol details: CCRIS mutagenicity studies
# Test settings: Test System: AMES SALMONELLA TYPHIMURIUM; Strain/Indicator: TA97; Metabolic Activation: RAT, LIVER, S-9, AROCLOR 1254; Method: SPOT TEST
Calls of active or inactive are those of the source. How the calls were made is not given here.
Hi there, use one of these labels in your reply, thanks! active, inactive

Worked set:
- CC(C)(O)[C@H]1Cc2cc3ccc(=O)oc3cc2O1: active
- CC(C)=CCOc1c2occc2cc2ccc(=O)oc12: active
- C=CC(C)(C)c1cc2cc3c(cc2oc1=O)OC(C(C)(C)O)C3 (centres undefined): inactive

Okay, next one:
Task: Can you look up the reported call for CC1(C)O[C@H]1COc1c2ccoc2cc2oc(=O)ccc12 for me?
Result: inactive

* * *

# Tested on: CCRIS mutagenicity, Ames/micronucleus/aberration tests
# Protocol details: CCRIS mutagenicity studies
# Test settings: Test System: AMES SALMONELLA TYPHIMURIUM; Strain/Indicator: TA1535; Metabolic Activation: NONE; Method: PREINCUBATION
The source made the active and inactive calls. No rule for the calls is given here.
Hi there, use one of these labels in your reply, thanks! Y = active, N = inactive

Worked set:
- O=C(OCC(COC(=O)c1ccccc1)(COC(=O)c1ccccc1)COC(=O)c1ccccc1)c1ccccc1: N
- OC1C2(Cl)C3(Cl)C4(Cl)C(Cl)(Cl)C5(Cl)C3(Cl)C1(Cl)C5(Cl)C24Cl (configuration not stated): N
- O=Cc1ccccc1Cl: N
- Cc1n[nH]c(=O)[nH]c1=O: N
- Cc1cccc(O)c1C: N
- CCCCCCCCCCCCCOC(=O)c1ccccc1C(=O)OCCCCCCCCCCCCC: N

Task: Can you look up the reported call for C=CC(=O)NCO for me?
Result: N

Task: Can you look up the reported call for Nc1c(N=Nc2ccc(-c3ccc(NN=C4C=CC(=O)C=C4)cc3)cc2)c(S(=O)(=O)O)cc2c1C(=O)/C(=N/Nc1ccccc1)C(S(=O)(=O)O)=C2 for me?
Result: N

Task: Can you look up the reported call for CC1(C)SSC[C@@H](C(=O)O)NC1=O for me?
Result: N

Task: Can you look up the reported call for NN for me?
Result: Y

Task: Can you look up the reported call for Clc1cccc(C(Cl)(Cl)Cl)n1 for me?
Result: N

Task: Can you look up the reported call for Oc1cc(O)c2cc(O)c(-c3cc(O)c(O)c(O)c3)[o+]c2c1 for me?
Result: N

* * *

# Tested on: CCRIS mutagenicity, Ames/micronucleus/aberration tests
# Protocol details: CCRIS mutagenicity studies
# Test settings: Test System: AMES SALMONELLA TYPHIMURIUM; Strain/Indicator: TA100; Metabolic Activation: RAT, LIVER, S-9, AROCLOR 1254 (30%); Method: PREINCUBATION
The source made the active and inactive calls. No rule for the calls is given here.
Attribute measured: mutagenic call

• CCCCC(CC)COCCCN (configuration not stated) = inactive; negative
• CC(C)(C)c1cc(O)ccc1O = inactive; negative
• Nc1ccccc1C(=O)OC/C=C/c1ccccc1 = inactive; negative
• CCN(CC)c1ccc(N=O)c(O)c1 = inactive; negative
• CCCCCCCCCCCC[S][Sn]([CH2]CCC)([CH2]CCC)[S]CCCCCCCCCCCC = inactive; negative

Task: Could you tell me which mutagenic call is on file for CCCCNC(=O)n1c(NC(=O)OC)nc2ccccc21 ?
Result: inactive; negative

Task: Could you tell me which mutagenic call is on file for O=[N+]([O-])c1cccc2c([N+](=O)[O-])cccc12 ?
Result: active; positive

Task: Could you tell me which mutagenic call is on file for O=Cc1ccccc1Cl ?
Result: inactive; negative

Task: Could you tell me which mutagenic call is on file for Oc1c(Cl)c(Cl)cc(Cl)c1Cl ?
Result: inactive; negative
